Assay Notes: Animal experiments and sample analysis: plasma, brain and CSF concentration
Format: in vivo
Reported Conditions: plasma; rat; 0.5 h between administration and CSF sampling; doses of 10.0 or 5 μmol/kg; read-out: conc plasma
Would you kindly list concentration at 0.5 h for each of these compounds?
Give the number first and the unit second.

### Prompt # input compound: `Cc1nc2cccnc2n2c(-c3cc(OCC(C)(C)O)ccc3Cl)nnc12` ; wanted: its concentration at 0.5 h
### Response 2.19 µM

### Prompt # input compound: `Cc1nc2cccnc2n2c(-c3cc(OC[C@H](C)O)ccc3Cl)nnc12` ; wanted: its concentration at 0.5 h
### Response 1.23 µM

### Prompt # input compound: `Cc1ccc2nc(C)c3nnc(-c4cc(OC[C@H](C)O)ccc4Cl)n3c2n1` ; wanted: its concentration at 0.5 h
### Response 0.223 µM

### Prompt # input compound: `Cc1nc2cccnc2n2c(-c3cc(OC4CCOCC4)ccc3Cl)nnc12` ; wanted: its concentration at 0.5 h
### Response 0.338 µM

----------
System Tested: PDE2A (Homo sapiens, UniProt O00408)
Sequence (O00408 whole entry, species assumed): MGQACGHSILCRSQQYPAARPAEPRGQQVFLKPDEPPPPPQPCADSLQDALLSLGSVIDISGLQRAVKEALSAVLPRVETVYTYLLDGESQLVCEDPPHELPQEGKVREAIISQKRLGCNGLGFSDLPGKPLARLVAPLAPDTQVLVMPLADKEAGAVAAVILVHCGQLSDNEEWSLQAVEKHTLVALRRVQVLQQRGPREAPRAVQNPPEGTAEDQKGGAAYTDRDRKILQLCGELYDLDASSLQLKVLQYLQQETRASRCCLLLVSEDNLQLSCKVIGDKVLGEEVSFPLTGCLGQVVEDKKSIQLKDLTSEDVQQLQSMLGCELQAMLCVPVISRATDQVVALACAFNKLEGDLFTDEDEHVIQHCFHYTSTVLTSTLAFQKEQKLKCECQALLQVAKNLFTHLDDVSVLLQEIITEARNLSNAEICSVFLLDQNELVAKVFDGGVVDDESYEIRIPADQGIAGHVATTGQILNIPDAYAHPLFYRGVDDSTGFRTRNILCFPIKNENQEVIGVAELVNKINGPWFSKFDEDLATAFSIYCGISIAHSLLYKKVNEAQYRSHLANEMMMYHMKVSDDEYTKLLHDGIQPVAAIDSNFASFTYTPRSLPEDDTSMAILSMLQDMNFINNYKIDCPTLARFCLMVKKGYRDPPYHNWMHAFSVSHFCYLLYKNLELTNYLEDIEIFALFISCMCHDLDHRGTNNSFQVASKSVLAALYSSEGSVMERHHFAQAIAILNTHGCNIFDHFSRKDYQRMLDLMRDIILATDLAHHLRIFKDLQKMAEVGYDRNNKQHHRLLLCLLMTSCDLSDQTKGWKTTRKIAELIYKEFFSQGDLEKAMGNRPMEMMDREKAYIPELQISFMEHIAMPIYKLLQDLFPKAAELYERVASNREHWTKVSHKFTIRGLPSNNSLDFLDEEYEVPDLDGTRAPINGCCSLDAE
Assay Notes: Radioactive PDE2 assay ([3H]cAMP SPA)
Format: biochemical
Experimental Endpoint: log10(IC50) (log10 of the value in nM)
Short version: log10 scale, IC50, nM.

### Prompt # input molecule: `Cc1nc2cccnc2n2c(-c3cc(OCC4(C)COC4)ccc3Cl)nnc12` ; wanted: its log10(IC50)
### Response 2.23

### Prompt # input molecule: `Cc1ccc2nc(C)c3nnc(-c4cc(OC5CCC(F)(F)CC5)ccc4Cl)n3c2n1` ; wanted: its log10(IC50)
### Response 1.43

### Prompt # input molecule: `Cc1nc2cccnc2n2c(-c3cc(OCCO)ccc3Cl)nnc12` ; wanted: its log10(IC50)
### Response 1.60

### Prompt # input molecule: `Cc1ccc2nc(C)c3nnc(-c4cc(OC[C@@H](C)O)ccc4Cl)n3c2n1` ; wanted: its log10(IC50)
### Response 0.95

### Prompt # input molecule: Cc1nc2cccnc2n2c(-c3cc(OC(C)C4CCOCC4)ccc3Cl)nnc12 (centres unmarked) ; wanted: its log10(IC50)
### Response 2.62

### Prompt # input molecule: `Cc1ccc2nc(C)c3nnc(-c4cc(O)ccc4Cl)n3c2n1` ; wanted: its log10(IC50)
### Response 0.60

### Prompt # input molecule: `Cc1nc2cccnc2n2c(-c3cc(O[C@H]4CCOC4)ccc3Cl)nnc12` ; wanted: its log10(IC50)
### Response 2.14

### Prompt # input molecule: Cc1nc2cccnc2n2c(-c3cc(OC4CCOC4)ccc3Cl)nnc12 (centres unmarked) ; wanted: its log10(IC50)
### Response 2.06

### Prompt # input molecule: `Cc1ccc2nc(C)c3nnc(-c4cc(OCCCOC(F)(F)F)ccc4Cl)n3c2n1` ; wanted: its log10(IC50)
### Response 0.60

### Prompt # input molecule: `Cc1nc2cccnc2n2c(-c3cc(OCCCO)ccc3F)nnc12` ; wanted: its log10(IC50)
### Response 2.06

### Prompt # input molecule: Cc1nc2cccnc2n2c(-c3cc(OC4CCC(O)CC4)ccc3Cl)nnc12 (centres unmarked) ; wanted: its log10(IC50)
### Response 2.96

### Prompt # input molecule: `COCCOc1ccc(Cl)c(-c2nnc3c(C)nc4ccc(C)nc4n23)c1` ; wanted: its log10(IC50)
### Response 1.23

### Prompt # input molecule: `Cc1nc2cccnc2n2c(-c3cc(OC4CCC(F)(F)CC4)ccc3Cl)nnc12` ; wanted: its log10(IC50)
### Response 1.85

### Prompt # input molecule: `Cc1ccc2nc(C)c3nnc(-c4cccc(O)c4)n3c2n1` ; wanted: its log10(IC50)
### Response 2.19
